B1: TPR t1 (parent)
chain: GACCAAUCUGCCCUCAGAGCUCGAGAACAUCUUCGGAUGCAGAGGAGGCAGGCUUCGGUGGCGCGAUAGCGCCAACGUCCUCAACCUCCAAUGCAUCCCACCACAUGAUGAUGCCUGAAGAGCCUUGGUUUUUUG

Variants of: B1
experiment-summary: polymerase ribozyme fitness, log enrichment relative to wild type (log ratio); higher = more active; in vitro selection for triplet polymerase activity
value-kind: polymerase ribozyme fitness (log ratio)

Example cases with answers are listed next.
{"columns": ["sequence-input", "reading"],
 "data": [
  ["GACCAAUCUGUCCUCAGAGGUCGAGAACAUCUUCGGAUGCAGAGGAGGCAGGCUUCGGUGGCGCGAUAGCGCCAACGUCCUCAACCUCCAAUGCAGCCCACCACAUGAUGAUGCCUGAAGAGUCUUGGUUUUUUG [C11U C20G U96G C123U]", -2.94],
  ["GACCAAUCUGCUCUCAGAGCUCGAGAACAUCUUCGGAUGCAGAGGAGGAAGGCUUCGGUGGCGCGAUAGCGCCAAGGUCGUCAACCUACAACGCAUCCCACCACAUGAUGACGCCUGAAGAGCCUUGGUUUUUUG [C12U C49A C76G C80G C88A U92C U112C]", -7.46],
  ["GACCAAUCUGCCCUCAGAGCUCGAGAACAUCUUCGGAGGCAGAGGAGGCAGGCAUCGGUGGCGCGAUAGCGCCAACGUCCUCAACCUCCAAUGCAUCCCACCACAUGAUGAUGCCUGAAGAGCCUUGGUUUUUUG [U38G U54A]", -0.658],
  ["GACCAAUCUGCCCUCAGAGCUCGAGAACAUGUUCGUAUGCAGAAGAGGCAGGCUUCGGUGGCGCGAUAGCGCCUACGUCCUCAACCUCCAAUGCAUCCCACCACAUGUUGAGGCCUGAAGAGCCUUGGUUUUUUG [C31G G36U G44A A74U A108U U112G]", -7.74],
  ["GACCAAUCUGCCCACAGAGCGCGAGAACAUCUUCGGAUGCAGAGGAGGCAGGCUUCGGUGGCGCGAUAGCGCCAACGUCCUCAACCUCCAAUGCAUCCCACCACAUGAUGAUGCCUGAAGAGCCUUGGUUUUUUG [U14A U21G]", -1.66],
  ["GACCAAUCUGCCCUCUGAGCUCGAGAACUUCUUCGGAUGCAGAGGAGGCAGGCAUCGGUGGCUCGAUAGCGCCAACGUCCUCAACCUCCAAUGCAUCCCACCACAUGAUGAUGCCUGAAGAGCCUUGGUUUUUUG [A16U A29U U54A G63U]", -3.53]
]}

polymerase ribozyme fitness (log ratio) for GACCAAUCUGCCCUCAGAACUCGAGAACAUCUUCGGAUGCAGAGGAGGCAGGCUUCGGUGGCGCGAUAGCGCCAACCUCCUCAACCUCCAAUGCAUCCCACCACAUGAUGAUGCCUGAAGAGCCUUGGUUUUUUG [G19A G77C] ?
-2.48

polymerase ribozyme fitness (log ratio) for GACCAAUCUGCCCUCAGAGCUCGAGAACAUCUUCGGAUGCAUAGGAGGCAGGCUUCGGUGGCGCGAUAGCGCCAACGUUCUCAACCUCCAAUGCAUCCCUCCACAUGAUGAUGCCUGAAGAGCCUUGGUUUUUUG [G42U C79U A100U] ?
-2.8

polymerase ribozyme fitness (log ratio) for GACCAAUCUGCCCUCAUAGCUCGAGAACAUCUUCGGAUGCAGAGGAGGCAGGCUUCGGUGGCGCGAUAGCGCCAACGUCCUCAACCUCCAAUGCAUUCCACCACAUGAUGAUGCCUGAAGAGCCUUGGUUUUUUG [G17U C97U] ?
-3.45
